test system: MOLT-4 leukemia; experiment: NCI tumour cell line growth inhibition, 48 h
value_type: TGI (µM)
A number alone suffices; assume µM.

Below: 3 molecules and their reported TGI.
COC(=O)c1c2c(c(C)[n+]([O-])c1C)C(=O)C=C(NCc1ccccc1)C2=O ... 2.83
CC(C)(C)c1ccc(C(O)CCCN2CCC(C(O)(c3ccccc3)c3ccccc3)CC2)cc1 (stereo not given) ... 5.32
CCOC(=O)N1C/C(=C\c2ccccc2)C(=O)/C(=C/c2ccccc2)C1 ... 6

TGI recorded for this molecule, FC(F)(F)c1cc(N(C2c3ccccc3C=Cc3ccccc32)P(Cl)Cl)cc(C(F)(F)F)c1 , is 54.4

====

test system: SW-620 colon; assay: NCI tumour cell line growth inhibition, 48 h; in the data active means GI50 below about 0.43 µM; inactive means the rest
Entry note: the call must match one of 1 (yes) (active), 0 (no) (inactive)

As a guide, the following entries are already answered.
O=C1CCc2c(sc3[nH]c(=S)n(-c4cc(C(F)(F)F)cc(C(F)(F)F)c4)c(=O)c23)C1 ... 1 (yes)
O=C(Oc1cccc(Cl)c1)c1ccccc1Nc1ccnc(C(F)(F)F)c1 ... 0 (no)
COC(=O)c1c2c(c(C)[n+]([O-])c1C)C(=O)C=C(NCc1ccccc1)C2=O ... 1 (yes)

stdin: Recorded call for O=[N+]([O-])c1cc[n+]([O-])c2ccccc12 ?
stdout: 1 (yes)

====

tested on: EKVX NSCLC; assay: NCI tumour cell line growth inhibition, 48 h
value_type: TGI

C=CO/N=[N+](\[O-])N(CC)CC ... > 100 µM
C/C=C(\C)C(=O)OC1CC(OC(C)=O)C2(C(=O)OC)COC3C2C1(C)C1C2(C(=O)OC)OCC1(C3O)C1(O)C3CC(C4(O)C=COC4O3)C1(C)O2 (centres undefined) ... > 100 µM
COc1ccccc1OCC(COC(=O)Nc1ccccc1)OC(=O)Nc1ccccc1 (centres undefined) ... > 100 µM

TGI recorded for this molecule, C#C[C@]1(O)CC[C@H]2[C@@H]3CC=C4c5sc(Nc6cc(F)ccc6F)nc5CC[C@]4(C)[C@H]3CC[C@@]21C , is 3.06 µM

====

tested on: UACC-62 melanoma; assay: NCI tumour cell line growth inhibition, 48 h; in the data active = GI50 below about 0.43 µM; inactive = the rest
Entry note: the call must match one of active, inactive

c1ccc(-c2nn3c(c2-c2ccnc4cc(OCCN5CCOCC5)ccc24)CCC3)nc1 ... inactive
CNC(=O)NCC1OC(n2cnc3c(NC(=O)Nc4ccccc4)ncnc32)C(O[Si](C)(C)C(C)(C)C)C1O[Si](C)(C)C(C)(C)C (stereo not given) ... inactive

stdin: Recorded call for COc1ccc([C@H](CC(=O)O)N2CCN(CCCc3ccc4c(n3)NCCC4)C2=O)cn1 ?
stdout: inactive

stdin: Recorded call for COc1ccc2c(c1)nc(NNC(=O)c1cnccn1)c1cccn12 ?
stdout: active

stdin: Recorded call for COc1cc2c3c(n(CCCN)c(=O)c2cc1OC)-c1ccc([N+](=O)[O-])cc1C3=O ?
stdout: inactive

====

tested on: MOLT-4 leukemia; experiment: NCI tumour cell line growth inhibition, 48 h
Reported TGI values are given for each entry in this list.

TGI recorded for this molecule, C=CO/N=[N+](\[O-])N(CC)CC , is > 100 µM

TGI recorded for this molecule, Fc1cccc(F)c1C1SCc2nc3cc(Cl)c(Cl)cc3n21 (centres undefined) , is > 100 µM

TGI recorded for this molecule, C1=NCCNCCNCCN=Cc2ccc(cc2)OCc2cccc(n2)COc2ccc1cc2 , is > 100 µM

TGI recorded for this molecule, CCCCc1ccc(Nc2ncc3ncn(COCCO)c3n2)cc1 , is 53.1 µM

TGI recorded for this molecule, C/C=C(\C)C(=O)OC1CC(OC(C)=O)C2(C(=O)OC)COC3C2C1(C)C1C2(C(=O)OC)OCC1(C3O)C1(O)C3CC(C4(O)C=COC4O3)C1(C)O2 (centres undefined) , is > 100 µM

TGI recorded for this molecule, O=C1C2C(C(=O)N1c1ccccc1)C1c3ccccc3C2C2C(=O)N(c3ccccc3)C(=O)C21 (centres undefined) , is > 100 µM
